Where do these numbers come from? They come from PubChem BioAssay (NCI).

# Test system: PC-3 prostate
# MEASUREMENT_PROTOCOL: NCI-60 one-dose screen, 48 h (100 = growth as untreated, 0 = no growth, -100 = all killed)
# COND: 10 µM unless noted
The panel holds about 83,000 compounds, 20% with a hit somewhere; the sample as a whole holds those more often. Active and inactive are the calls of the source. How the source made its calls: active means growth percent below 10; inactive means the rest.

{"columns": ["MOLECULE", "growth"],
 "data": [
  ["COc1ccc(C(=O)CSc2nnc(-c3cc(-c4ccccc4)nc4ccccc34)o2)cc1", "105% (inactive)"],
  ["CCOC(=O)Nc1ccc2c(c1)/C(=N\\NC(=S)NC)c1ccccc1-2", "81.8% (inactive)"],
  ["COc1cc(NCc2cn(-c3ccc(C(=O)O)cc3)nc2-c2ccc(C(=O)O)cc2)cc(OC)c1OC", "96.9% (inactive)"],
  ["O=C1CC(c2ccccc2)Cc2nc3ccc(Cl)cc3cc21 (centres undefined)", "27.7% (inactive)"],
  ["O=C(CCCCCCSc1nc(-c2ccc(Cl)cc2)cc(-c2ccc(Cl)cc2)n1)NO", "42.8% (inactive)"],
  ["Cc1cc(NN=C(c2ccc(O)cc2)c2ccc(O)cc2)c([N+](=O)[O-])cc1[N+](=O)[O-]", "38.4% (inactive)"],
  ["COc1ccc(OC)c(NC=O)c1", "105% (inactive)"],
  ["N#CC1C(=O)NC(c2ccccc2[N+](=O)[O-])c2sc3c(F)cccc3c21 (centres undefined)", "80% (inactive)"],
  ["COc1ccc(C(=O)/C=C/c2ccccn2)c(O)c1", "95.5% (inactive)"],
  ["O=C(OCc1ccc2c(Cl)cc(Cl)c(O)c2n1)N1CCN(C(=O)c2cc3cc(F)ccc3[nH]2)CC1", "15.8% (inactive)"],
  ["CC(C)=CCC[C@](C)(O)[C@H]1CC[C@]2(C)[C@@H]1CC[C@@H]1[C@@]3(C)CC/C(=N/O)C(C)(C)[C@@H]3CC[C@]12C", "-52.1% [100 µM] (active)"],
  ["CCCn1ccnc1C(O)c1ccc(OCc2ccccc2)c(OC)c1 (centres undefined)", "82.7% (inactive)"],
  ["CC(C)c1ccc(C(=O)Nc2sc3c(c2C#N)CCC(=O)C3)cc1", "1.47% (active)"],
  ["C[C@H]1[C@H](C)CC[C@]2(C(=O)N3CCN(C)CC3)CC[C@]3(C)C(=CC[C@@H]4[C@@]5(C)C/C(=C/c6ccco6)C(=O)C(C)(C)[C@@H]5CC[C@]43C)[C@H]12", "29.9% [100 µM] (inactive)"],
  ["O=S(=O)(c1ccc(N/N=C\\c2ccccc2Cl)cc1)c1ccc(N/N=C/c2ccccc2Cl)cc1", "54.7% (inactive)"],
  ["O=C(Nc1ccc(Cl)c(C(F)(F)F)c1)Nc1ccc(-c2cccnc2)cc1N1CCC(CO)CC1", "12.4% (inactive)"],
  ["CCOC(=O)c1cnc2ccc(Br)cc2c1Nc1cccc(S(N)(=O)=O)c1", "94.5% (inactive)"],
  ["O=[N+]([O-])c1cc(CCl)ccc1OCCBr", "98.1% (inactive)"],
  ["CC(C)C1=NOC(=O)C1=Cc1cn(-c2ccccc2)nc1-c1ccc(Br)cc1", "82.3% (inactive)"]
]}

----------
# System: EKVX NSCLC
# MEASUREMENT_PROTOCOL: NCI-60 one-dose screen, 48 h
# COND: 10 µM unless noted
About 83,000 compounds went through this panel and 20% of them were active in at least one assay; those are over-represented in the sample as a whole. Calls of active or inactive are those of the source. The calls were made as follows: active = growth percent below 10; inactive = the rest.
Classes used: 1.0 (active), 0.0 (inactive)

{"columns": ["COMPOUND", "CAT"],
 "data": [
  ["CC(C)C1=NOC(=O)C1=Cc1cn(-c2ccccc2)nc1-c1cccc([N+](=O)[O-])c1", 0.0],
  ["c1ccc(-c2nnc(-c3c[nH]c4ncccc34)s2)cc1", 0.0],
  ["O=C(Nc1cccc(C2=NCCN2)c1)c1cccc(C(=O)Nc2cccc(C3=NCCN3)c2)c1", 0.0],
  ["C[C@@H]1C[C@H]2C(=O)O[C@@H](C)[C@H](NC(=O)[C@H](Cc3cc(F)cc(F)c3)NC(=O)Nc3ccc(Cl)cc3F)C(=O)N3C[C@H](O)C[C@H]3C(=O)N3CCN(C)C[C@H]3C(=O)N[C@@H](C)C(=O)N2C1", 0.0],
  ["Cc1cc(SC#N)ncn1", 0.0],
  ["NS(=O)(=O)c1ccc(CCN2C(=O)/C(=C\\c3ccccc3)C=C2c2ccc(Cl)cc2)cc1", 0.0],
  ["CCOC(=O)c1nn(C2CCCCO2)c2ccc(NC(=O)CSc3nc4ccccc4c(=O)[nH]3)cc12 (stereo not given)", 0.0],
  ["Cc1cc[n+](CCCCCCCCCC[n+]2ccc(C)cc2)cc1", 0.0],
  ["CC1=C/C(=C(\\c2cc(C)c(O)c(C(=O)O)c2)c2c(Cl)cccc2Cl)C=C(C(=O)O)C1=O", 0.0],
  ["N#C/C(C(=O)c1ccccc1)=C1/C(=O)Nc2ccccc21", 0.0],
  ["O=C1NC(=O)c2cc([N+](=O)[O-])cc3cccc1c23", 0.0],
  ["C=C(C)[C@@H]1CC[C@]2(C(N)=O)CC[C@]3(C)[C@H](CC[C@@H]4[C@@]5(C)CC[C@H](O)C(C)(C)[C@@H]5CC[C@]43C)[C@@H]12", 1.0],
  ["O=c1[nH]cnc2c1ccn2C1OC(CO)C(O)C1O (stereo not given)", 0.0],
  ["COc1ccc(OC)c(NC=O)c1", 0.0],
  ["Cc1cc(N2CCCCCC2)nc(N2CCN(CC(=O)Nc3ccc4c(ccn4Cc4ccccc4)c3)CC2)n1", 0.0],
  ["CCN1c2ccccc2C(Cl)(c2ccc(N(C)C)cc2)c2ccccc21", 0.0],
  ["CCN(CC)CCCC(C)Nc1c2ccc(C)cc2nc2ccc(OC)cc12 (stereo not given)", 0.0],
  ["N#Cc1c(N2CCOCC2)nc(=S)[nH]c1-c1ccco1", 0.0],
  ["Cn1cc(-c2nnc(-c3cn(C)c4ncccc34)o2)c2ccccc21", 0.0],
  ["CC1=CC[C@@H]2C(C)(C)[C@@H](O)CC[C@@]2(C)[C@@H]1COc1ccc2ccc(=O)oc2c1", 0.0],
  ["CN(C)c1cc(NN=C(c2ccc(O)cc2)c2ccc(O)cc2)c([N+](=O)[O-])cc1[N+](=O)[O-]", 0.0],
  ["O=C(Nc1ccc(F)cc1)c1ccccc1", 0.0],
  ["C#C[C@]1(O)CC[C@H]2[C@@H]3CC=C4c5nc(Nc6ccccn6)sc5CC[C@]4(C)[C@H]3CC[C@@]21C", 1.0],
  ["CC(C)=CCC[C@](C)(O)[C@H]1CC[C@]2(C)[C@@H]1CC[C@@H]1[C@@]3(C)CC[C@H](OC(=O)CCC(=O)O)C(C)(C)[C@@H]3CC[C@]12C", 0.0],
  ["CCOC(CNC(=O)c1cccc([N+](=O)[O-])c1)OCC", 0.0],
  ["c1nc(N2CCOCC2)c2[nH]ccc2n1", 0.0],
  ["C=C(CC(=O)OC)C(C)=O", 0.0],
  ["CCN(CC)c1ccc(/C=C/C=C2\\NC(=O)NC2=O)cc1", 0.0],
  ["Cn1cc(-c2noc(-c3cn(C)c4ncccc34)n2)c2cc(Cl)ccc21", 0.0],
  ["COc1ncc(-c2ccc3nccc(C#CCCCCC(=O)NO)c3c2)cc1NS(=O)(=O)c1ccc(F)cc1F", 1.0],
  ["Cc1cccc(C[C@H](NC(=O)Nc2ccc(Cl)cc2F)C(=O)N[C@@H]2C(=O)N3C[C@H](O)C[C@H]3C(=O)N3CCCC[C@H]3C(=O)N[C@@H](C)C(=O)N3C[C@H](C)C[C@H]3C(=O)O[C@H]2C)c1", 0.0],
  ["N/C(=N\\c1nc2ccccc2[nH]1)NC(=O)Cc1cccc2ccccc12", 0.0],
  ["COc1ncnc2c(-c3ccccc3)cn(COCc3ccccc3)c12", 0.0],
  ["CC[C@@](C)(NC(=O)[C@H](C)NC(=O)CCNC(=O)C(C)(C)NC(=O)[C@H](C)NC(=O)[C@@H]1CCCN1C(=O)[C@@](C)(CC)NC(=O)[C@H](Cc1ccccc1)NC(=O)C1CCCN1C(=O)C(C)(C)NC(=O)C1CCCN1C(=O)C(C)(C)NC(C)=O)C(=O)NCCC(=O)N[C@@H](CC(C)C)C(=O)NC(C)(C)C(=O)NCCC(=O)N[C@@H](CC(C)C)C(=O)NC(C)(C)C(=O)NC(C)(C)C(=O)N[C@@H](CC(C)C)C(=O)NCCC(=O)NCO (stereo not given in full)", 1.0],
  ["O=C(COc1cccc(/C=C2\\Oc3ccccc3C2=O)c1)c1ccc([N+](=O)[O-])cc1", 0.0]
]}
